system: EKVX; test: NCI tumour cell line growth inhibition, 48 h
Calls of active or inactive are those of the source. Rule as the data show it: active = GI50 up to about 1.1 µM and inactive = higher.
// classify into yes for active, no for inactive

Enquiry: Please share the test call associated with Cc1ccc(C(=O)C(C2=Nc3nnc(N)n3C2=O)C2=Nc3nnc(N)n3C2=O)cc1 .
Return: no

Enquiry: Which outcome did this test record for the compound Nc1ncnc2c1ncn2C1OC(CSCc2ccc(Cl)cc2)C(O)C1O (centres undefined) ?
Return: no

Enquiry: // param item: Fc1cc(-c2cc(-c3ccc4c(c3)OCO4)n[nH]2)c(Cl)cc1Cl ; yields the recorded call
Return: no

Enquiry: Can you look up the reported call for C[N+](C)([O-])CCCNc1c2ccccc2nc2cccc([N+](=O)[O-])c12 for me?
Return: yes

Enquiry: Please let me know the test result on file for C=C1C[C@]23CC[C@@H]4C(CO)(CO)CC(=O)C[C@]4(C)[C@@H]2C(O)C[C@H]1C3 (some centres undefined) .
Return: no

Enquiry: Please state the recorded outcome for this compound: Cc1ccc(OP2(=O)Oc3ccc4ccccc4c3CN2c2ccc(Cl)cc2)cc1C (centres undefined)
Return: no

Enquiry: // param item: CC(C)(C)OC(=O)N(CCCCNC(=O)c1ccccc1)CCCNC(=O)c1ccccc1 ; yields the recorded call
Return: no

Enquiry: Please let me know the test result on file for CC(C)(C)OC(=O)c1cccnc1/C=N/O .
Return: no

Enquiry: Test call for this compound, please: CC(C)C(=O)[C@@]1(C)SC[C@H]2CCN=C21
Return: no

Enquiry: What did the test return for CC(C)(C)OC(=O)CCCCCNC(=O)CCCCCNC(=O)CCC(CN(CC(=O)OCc1ccccc1)CC(=O)OCc1ccccc1)N(CC(=O)OCc1ccccc1)CC(=O)OCc1ccccc1 (centres undefined) ?
Return: no

Enquiry: Query: recorded result category for OC1/C(=C/c2ccccc2)CNC/C1=C\c1ccccc1 (centres undefined) in this test
Return: no

Enquiry: In this assay, the call recorded for CCN(CC)CCCNc1nc(=O)[nH]c(C)c1C(=O)Nc1c2ccccc2nc2ccccc12 was what?
Return: no

Enquiry: Look up the recorded call for OCC1OC(c2n[nH]c3c(O)ncnc23)C(O)C1O (centres undefined) in this test.
Return: no

Enquiry: Per the records of this test, what outcome belongs to CCOc1ccc(N2C(=O)/C(=C/c3ccc(N(CCC#N)CCC#N)cc3)N=C2c2cc([N+](=O)[O-])ccc2Cl)cc1 ?
Return: no

Provenance of the data: ChEMBL document CHEMBL1201862
